System: COLO 205 colon
Assay: NCI-60 one-dose screen, 48 h (100 = growth as untreated, 0 = no growth, -100 = all killed)
Details: 10 µM
The panel holds about 83,000 compounds, 20% with a hit somewhere; the sample as a whole holds those more often.
assay metric: growth (%)
Answer with a number only, understood to be in %.

compound=COc1cc(Cc2cc(-c3ccccc3)n[nH]c2=O)cc(OC)c1OC assay_metric=growth measurement=56.3
compound=COc1cc(-c2nn(-c3cccc(NC(=O)NCCNC(=O)c4ccccc4)c3)cc2-c2ccncc2)ccc1Cl assay_metric=growth measurement=2.08
compound="CC1OC2CC(=O)OC2C2=C1C(=O)c1c(O)c3c(c(O)c1C2=O)C1CC(O)C3(O)C(C)O1 (centres undefined)" assay_metric=growth measurement=-73.5
compound=COc1cc(C(=O)/C(C)=C/c2c[nH]c3ccccc23)cc(OC)c1OC assay_metric=growth measurement=-39.2
compound=N=C1S/C(=C/c2ccc(-c3ccc4c(c3)C(=O)NC4=O)o2)C(=O)N1c1ccc(Br)cc1 assay_metric=growth measurement=55.1
compound=COc1ccc2c(c1)C(=O)/C(=C/c1ncc([N+](=O)[O-])n1C)O2 assay_metric=growth measurement=-47.5
compound=COCCn1cc(-c2nc(-c3cccnc3)cs2)c2cc(F)ccc21 assay_metric=growth measurement=104
compound=Cc1ccc2nc(Cl)c(-c3nc4ccccc4o3)cc2c1 assay_metric=growth measurement=89.5

Data request: Give the reported value of growth for this record: COc1cc(/C=C2\CCCC3=C2NC(N)=NC3c2cc(OC)c(OC)c(OC)c2)cc(OC)c1OC (centres undefined)
Data returned: -0.149

Data request: Give the reported value of growth for this record: COc1nc2c(c(=O)n1C)CN(c1ccccc1)C(=O)C(C)N2 (centres undefined)
Data returned: 115

Data request: Give the reported value of growth for this record: CCOC(=O)C1=CSC2=NC3=C(CCC/C3=C\c3ccc(Cl)cc3)C(c3ccc(Cl)cc3)N12 (centres undefined)
Data returned: 105

Data request: Give the reported value of growth for this record: `COc1ccc(/C=C2/SC(=S)NC2=O)c(OC)c1OC`
Data returned: 105

Data request: Give the reported value of growth for this record: `Nc1cc(-c2ccc(Cl)cc2)nn1-c1nc2ccccc2nc1Cc1ccccc1`
Data returned: 109

Data request: Give the reported value of growth for this record: `O=C1/C(=C/c2cccc(F)c2)Cc2ccccc21`
Data returned: 124

* * *

Tested on: PC-3 prostate
Assay: NCI-60 one-dose screen, 48 h (100 = growth as untreated, 0 = no growth, -100 = all killed)
Details: 10 µM
This is part of a sample that, as a whole, favours compounds with a hit. Of some 83,000 tested, about 20% had one in any assay.
assay metric: growth (%)
Answer with a number only, understood to be in %.

compound=Cc1cc(NC(=O)c2ccc(C)c(Nc3nccc(-c4cccnc4)n3)c2)cc(-n2cnc(C)c2)c1 measurement_unit=% measurement=61.4
compound=COc1ccc(-c2cc(-c3ccccc3)nc(SCCCC(=O)NO)n2)cc1 measurement_unit=% measurement=9.65
compound=O=C(CCCCCCC(=O)Nc1ccccc1)NO measurement_unit=% measurement=10.4
compound=COc1cc(C(=O)n2nc(-c3cc(OC)c(OC)c(OC)c3)nc2N)cc(OC)c1OC measurement_unit=% measurement=95.7

Data request: With PC-3 prostate as the test system, provide measured growth for this compound: `Cc1cn(-c2cc(F)cc(NC(=O)c3ccc(C)c(Nc4nccc(-c5cccnc5)n4)c3)c2)cn1`
Data returned: 68.6

Data request: With PC-3 prostate as the test system, provide measured growth for this compound: `C/C=C/CSC(C)(C)C(=O)NC`
Data returned: 92.8

Data request: With PC-3 prostate as the test system, provide measured growth for this compound: CC1CCCC(C(=O)O)C1C(=O)O (centres undefined)
Data returned: 76

Data request: With PC-3 prostate as the test system, provide measured growth for this compound: CN(C)CCC1(c2ccccc2)CCN(C)C1=O (centres undefined)
Data returned: 99.7

Data request: With PC-3 prostate as the test system, provide measured growth for this compound: `O=C(Cn1cc(CO)nn1)Nc1nc2ccccc2s1`
Data returned: 96.3
